- test: Plasma pharmacokinetics of lorlatinib at steady state (LC-MS/MS, non-compartmental analysis)
- Format: in vivo, human
- condition-notes: Cycle 1 Day 15, Cohort B2, 115 mg/m2 per dose; unit assumed
value-type: Tlag

Record request: Tlag value, item C[C@H]1Oc2cc(cnc2N)-c2c(nn(C)c2C#N)CN(C)C(=O)c2ccc(F)cc21
0 h

###

- test: Plasma pharmacokinetics of lorlatinib at steady state (LC-MS/MS, non-compartmental analysis)
- Format: in vivo, human
- condition-notes: Cycle 1 Day 1; Cohort A1; 115 mg/m2 per dose; individual patients
value-type: Tlast (h)
Give bare numbers, in h.

Record request: Tlast value, item C[C@H]1Oc2cc(cnc2N)-c2c(nn(C)c2C#N)CN(C)C(=O)c2ccc(F)cc21
24

###

- test: Plasma pharmacokinetics of lorlatinib at steady state (LC-MS/MS, non-compartmental analysis)
- Assay type: in vivo, human
- condition-notes: human, plasma, oral, 150 mg, Cycle 1 Day 15; Cohort A2; 150 mg per dose; individual patients; read-out: Clast_pred
value-type: concentration at 24 h (ng/mL)
Answers are plain numbers, in ng/mL.

Record request: concentration at 24 h value, item C[C@H]1Oc2cc(cnc2N)-c2c(nn(C)c2C#N)CN(C)C(=O)c2ccc(F)cc21
128

###

- test: Plasma pharmacokinetics of lorlatinib at steady state (LC-MS/MS, non-compartmental analysis)
- Assay type: in vivo, human
- condition-notes: human, in vivo, 115 mg/m2, Cycle 1 Day 1; patient N0773; Cohort B2; 115 mg/m2 per dose; Dose 75
value-type: AUC(0-t) (ng·h/mL)
One number for each entry, in ng·h/mL.

Record request: AUC(0-t) value, item C[C@H]1Oc2cc(cnc2N)-c2c(nn(C)c2C#N)CN(C)C(=O)c2ccc(F)cc21
10800

###

- test: Plasma pharmacokinetics of lorlatinib at steady state (LC-MS/MS, non-compartmental analysis)
- Format: in vivo, human
- condition-notes: human, plasma, oral, 100 mg, Cohort A2, 100 mg per dose, C1D15, Median, N 5; read-out: AUC_TAU
value-type: AUC (ng·h/mL)
One number for each entry, in ng·h/mL.

Record request: AUC value, item C[C@H]1Oc2cc(cnc2N)-c2c(nn(C)c2C#N)CN(C)C(=O)c2ccc(F)cc21
6130

###

- test: Plasma pharmacokinetics of lorlatinib at steady state (LC-MS/MS, non-compartmental analysis)
- Format: in vivo, human
- condition-notes: human, plasma, oral, 150 mg per dose, Cycle 1 Day 1, Cohort A2, 150 mg per dose
value-type: MRT last (h)
One number for each entry, in h.

Record request: MRT last value, item C[C@H]1Oc2cc(cnc2N)-c2c(nn(C)c2C#N)CN(C)C(=O)c2ccc(F)cc21
9.33

###

- test: Plasma pharmacokinetics of lorlatinib at steady state (LC-MS/MS, non-compartmental analysis)
- Format: in vivo, human
- condition-notes: human, in vivo, 115 mg/m2, Cycle 1 Day 15; Cohort A1; 115 mg/m2 per dose; individual patients; read-out: AUC_TAU
value-type: AUC (ng·h/mL)
Answers are plain numbers, in ng·h/mL.

Record request: AUC value, item C[C@H]1Oc2cc(cnc2N)-c2c(nn(C)c2C#N)CN(C)C(=O)c2ccc(F)cc21
8210

###

- test: Plasma pharmacokinetics of lorlatinib at steady state (LC-MS/MS, non-compartmental analysis)
- Assay type: in vivo, human
- condition-notes: human, plasma, oral, 150 mg, steady state; Cohort A2; 150 mg QD; read-out: Tmax
- Excerpt: Lorlatinib was isolated from human plasma by a liquid-iquid extraction procedure. […] A linear-log trapezoidal method was used [NT] A best-fit method was used to estimate terminal elimination and to extrapolate any plasma concentration versus time profiles to compute [NT].
value-type: Tmax

Record request: Tmax value, item C[C@H]1Oc2cc(cnc2N)-c2c(nn(C)c2C#N)CN(C)C(=O)c2ccc(F)cc21
1 h

###

- test: Plasma pharmacokinetics of lorlatinib at steady state (LC-MS/MS, non-compartmental analysis)
- Format: in vivo, human
- condition-notes: human, in vivo, 115 mg/m2, Cycle 1 Day 15; patient N0773; Cohort B2; 115 mg/m2 per dose; Dose 75; read-out: MRTINF_obs
value-type: MRT inf (h)
One number for each entry, in h.

Record request: MRT inf value, item C[C@H]1Oc2cc(cnc2N)-c2c(nn(C)c2C#N)CN(C)C(=O)c2ccc(F)cc21
4.18

###

- test: Plasma pharmacokinetics of lorlatinib at steady state (LC-MS/MS, non-compartmental analysis)
- Assay type: in vivo, human
- condition-notes: human, plasma, oral, 150 mg per dose, Cycle 1 Day 15, Cohort A2, 150 mg per dose
value-type: AUC(0-t) (ng·h/mL)
Give bare numbers, in ng·h/mL.

Record request: AUC(0-t) value, item C[C@H]1Oc2cc(cnc2N)-c2c(nn(C)c2C#N)CN(C)C(=O)c2ccc(F)cc21
5000

###

- test: Plasma pharmacokinetics of lorlatinib at steady state (LC-MS/MS, non-compartmental analysis)
- Type: in vivo, human
- condition-notes: Cycle 1 Day 15, Cohort A1, 115 mg/m2 per dose
value-type: Tlast (h)
Give bare numbers, in h.

Record request: Tlast value, item C[C@H]1Oc2cc(cnc2N)-c2c(nn(C)c2C#N)CN(C)C(=O)c2ccc(F)cc21 [Lorlatinib]
24

###

- test: Plasma pharmacokinetics of lorlatinib at steady state (LC-MS/MS, non-compartmental analysis)
- Assay type: in vivo, human
- condition-notes: human, plasma, oral, 60 mg/m2, Cohort A1, 60 mg/m2 per dose, C1D15, individual patient; read-out: AUC_TAU
value-type: AUC (ng·h/mL)
One number for each entry, in ng·h/mL.

Record request: AUC value, item C[C@H]1Oc2cc(cnc2N)-c2c(nn(C)c2C#N)CN(C)C(=O)c2ccc(F)cc21 [Lorlatinib]
4140

###

- test: Plasma pharmacokinetics of lorlatinib at steady state (LC-MS/MS, non-compartmental analysis)
- Assay type: in vivo, human
- condition-notes: human, plasma, oral, 100 mg, Cycle 1 Day 15; Cohort A2; 100 mg per dose; individual patients; read-out: MRTINF_pred
value-type: MRT inf (h)
Numbers only, in h.

Record request: MRT inf value, item C[C@H]1Oc2cc(cnc2N)-c2c(nn(C)c2C#N)CN(C)C(=O)c2ccc(F)cc21 [Lorlatinib]
23.7

###

- test: Plasma pharmacokinetics of lorlatinib at steady state (LC-MS/MS, non-compartmental analysis)
- Assay type: in vivo, human
- condition-notes: human, plasma, oral, 95 mg/m2, steady state; Cohort A1; 95 mg/m^2 QD; (CV); read-out: Cmax
value-type: Cmax (ng/mL)
Answers are plain numbers, in ng/mL.

Record request: Cmax value, item C[C@H]1Oc2cc(cnc2N)-c2c(nn(C)c2C#N)CN(C)C(=O)c2ccc(F)cc21 [Lorlatinib]
1020

###

- test: Plasma pharmacokinetics of lorlatinib at steady state (LC-MS/MS, non-compartmental analysis)
- Assay type: in vivo, human
- condition-notes: human, in vivo, 75 mg/m2, Cycle 1 Day 1; Cohort A1; 75 mg/m2 per dose; individual patients; read-out: Cmax
value-type: Cmax (ng/mL)
Answers are plain numbers, in ng/mL.

Record request: Cmax value, item C[C@H]1Oc2cc(cnc2N)-c2c(nn(C)c2C#N)CN(C)C(=O)c2ccc(F)cc21 [Lorlatinib]
467

###

- test: Plasma pharmacokinetics of lorlatinib at steady state (LC-MS/MS, non-compartmental analysis)
- Assay type: in vivo, human
- condition-notes: Cycle 1 Day 1; Cohort A1; 60 mg/m2 per dose; individual patients
value-type: Tlast

Record request: Tlast value, item C[C@H]1Oc2cc(cnc2N)-c2c(nn(C)c2C#N)CN(C)C(=O)c2ccc(F)cc21
24 h

###

- test: Plasma pharmacokinetics of lorlatinib at steady state (LC-MS/MS, non-compartmental analysis)
- Assay type: in vivo, human
- condition-notes: human, plasma, oral, 100 mg, Cohort A2, 100 mg per dose, C1D15, Geometric Mean, N 5; read-out: Tmax
- From the text: Lorlatinib was isolated from human plasma by a liquid-iquid extraction procedure. […] A linear-log trapezoidal method was used [NT] A best-fit method was used to estimate terminal elimination and to extrapolate any plasma concentration versus time profiles to compute [NT].
value-type: Tmax (h)
Give bare numbers, in h.

Record request: Tmax value, item C[C@H]1Oc2cc(cnc2N)-c2c(nn(C)c2C#N)CN(C)C(=O)c2ccc(F)cc21
1.74

###

- test: Plasma pharmacokinetics of lorlatinib at steady state (LC-MS/MS, non-compartmental analysis)
- Type: in vivo, human
- condition-notes: human, plasma, oral, 95 mg/m2, Cycle 1 Day 15, Cohort B2, 95 mg/m2 per dose; read-out: AUCall
value-type: AUC (ng·h/mL)
Answers are plain numbers, in ng·h/mL.

Record request: AUC value, item C[C@H]1Oc2cc(cnc2N)-c2c(nn(C)c2C#N)CN(C)C(=O)c2ccc(F)cc21
8100

###

- test: Plasma pharmacokinetics of lorlatinib at steady state (LC-MS/MS, non-compartmental analysis)
- Type: in vivo, human
- condition-notes: human, plasma, oral, 45 mg/m2, Cohort A1, 45 mg/m2 per dose, C1D15, Geometric Mean, N 3; read-out: Cmax
value-type: Cmax (ng/mL)
Answers are plain numbers, in ng/mL.

Record request: Cmax value, item C[C@H]1Oc2cc(cnc2N)-c2c(nn(C)c2C#N)CN(C)C(=O)c2ccc(F)cc21
355
